Assay Protocol: Displacement of [3H]PbTx-3 from rat brain synaptosome voltage-sensitive sodium channel site 5 after 1 hr by rapid filtration based scintillation counting
Format: tissue-based
Readout Label: Ki (nM)

1) C=C/C=C\CC[C@H]1O[C@H]2CC[C@@]3(C)O[C@H]4[C@@H](O)C[C@@]5(C)O[C@@H](CC/C=C(C)/C(C)=C/C=O)[C@@H](C)C[C@H]5O[C@@H]4C[C@@H]3O[C@@H]2CC[C@@]1(C)O | 170

* * *

Listing: pKi of selected compounds
Assay Protocol: Displacement of [3H]PbTx-3 from rat brain synaptosome voltage-sensitive sodium channel site 5 after 1 hr by rapid filtration based scintillation counting
Type: tissue-based
pKi: −log10 of the molar value.
Readout Label: pKi

1. CC(=O)NC[C@@H]1O[C@@H]2C[C@]3(C)O[C@@H]4C=C[C@@H]5O[C@@H]6C=C[C@@H]7O[C@H](/C=C/C=C/C=O)C=C[C@H]7O[C@H]6C[C@H]5O[C@@]4(C)C[C@H]3O[C@H]2C[C@H]1O [TAMULAMIDE A] | 5.60
2. C=C(C=O)C[C@@H]1C[C@H](O)[C@]2(C)O[C@@H]3C[C@@H]4O[C@@H]5C[C@]6(C)O[C@]7(C)CC[C@@H]8O[C@@H]9C[C@]%10(C)O[C@@H]%11C(C)=CC(=O)O[C@H]%11C[C@H]%10O[C@H]9C[C@@H](C)[C@H]8O[C@H]7C[C@H]6O[C@@]5(C)C/C=C\[C@H]4O[C@H]3C[C@H]2O1 | 8.92
3. CC(=O)NC[C@@H]1O[C@@H]2C[C@]3(C)O[C@@H]4C=C[C@@H]5O[C@@H]6C=C[C@@H]7O[C@H](/C=C/C=C/C=O)C=C[C@H]7O[C@H]6C[C@H]5O[C@H]4C[C@H]3O[C@H]2C[C@H]1O [TAMULAMIDE B] | 6.68
